Where do the numbers come from? From patent US11505533B2.

Test system: Glutamate, NMDA, Phencyclidine
Type: binding
assay context: 10 μM; rat
outcome measure: % Inhibition (%)
One number for each entry, in %.

Examples with answers:
# % Inhibition of `O=C(Nc1nnc(-c2ccc(F)cc2)o1)c1ccc(Oc2ccccc2)nc1` = 9

# % Inhibition of `O=C(Nc1nnc(-c2ccc(F)cc2)o1)c1ccc(OC2CCCCC2)cc1` = 0

Please report % Inhibition for every entry that follows.
1. O=C(Nc1nnc(-c2ccc(F)cc2)o1)N1CCc2ccccc2C1
2. O=C(Nc1nnc(-c2ccc(F)cc2)o1)N1CC=C(C(F)(F)F)CC1

1. −3
2. 5

* * *

System: E. coli TolC(−)
experiment description: TolC(−) MIC (NB)
Assay type: cell-based
assay context: Escherichia coli, read-out: TolC(−) MIC (μM)(NB)
Exercise: for every item that follows, state its recorded log10(MIC).
The common logarithm of MIC in µM is what is listed.

Please report log10(MIC) for every entry that follows.
1. O=C(Nc1nnc(-c2ccc(F)cc2)o1)N1CCc2sccc2C1
2. O=C(Nc1nnc(C2CCCC2)o1)c1ccc(Oc2ccccc2)nc1
3. O=C(Nc1nnc(-c2ccc(F)cc2)o1)N1CCC(c2ccccc2)CC1
4. O=C(Nc1nnc(-c2ccc(F)cc2)o1)N1CCC2(CC1)COC2
5. C=CCN(C)C(=O)Nc1nnc(-c2ccc(F)cc2)o1

0.50
0.85
0.75
2.00
1.40

Please report log10(MIC) for every entry that follows.
1. O=C(Nc1nnc(-c2ccc(F)cc2)o1)c1ccc(OC2CCCC2)cc1
2. O=C(Nc1nnc(-c2ccc(F)cc2)o1)N1CCc2cc(F)ccc2C1
3. O=C(Nc1nnc(-c2ccc(F)cc2)o1)N1CCC2(CCC2)CC1
4. O=C(Nc1nnc(-c2ccc3c(c2)CCC3)o1)N1CCC(Cl)=C(Cl)C1

1: 0.14; 2: 0.49; 3: 0.80; 4: 0.24

Please report log10(MIC) for every entry that follows.
1. O=C(Nc1nnc(-c2ccc(F)cc2)o1)c1ccc(Oc2cccc(O)c2)cc1
2. O=C(Nc1nnc(C2COc3ccccc3O2)o1)c1ccc(Oc2ccccc2)nc1 (stereo not drawn)
3. O=C(Nc1nnc(-c2ccc(F)cc2)o1)N1CCC(C2COC2)CC1
4. O=C(Nc1nnc(-c2ccc(N3CCCC3)cc2)o1)N1CC=C(C(F)(F)F)CC1

0.55
0.65
2.00
1.05

# log10(MIC) of `COC(=O)c1ccc(OC2CCN(C(=O)Nc3nnc(-c4ccc(F)cc4)o3)CC2)cc1` = 1.30

* * *

Exercise: for every item that follows, state its recorded log10 of MIC.
System: E. coli TolC(−)
experiment description: TolC(−) MIC (NB)
Assay type: cell-based
assay context: Escherichia coli, read-out: TolC(−) MIC (μM)(NB)
The common logarithm of MIC in µM is what is listed.

Value (log10 of MIC, E. coli TolC(−)) for record O=C(Nc1nnc(-c2ccc(F)cc2)o1)N1CCC2(C1)CC2(F)F (centres unmarked) = 1.45

Value (log10 of MIC, E. coli TolC(−)) for record `O=C(Nc1nnc(-c2ccc(F)cc2)o1)c1cnc(Oc2ccccc2)nc1` = 0.80

Value (log10 of MIC, E. coli TolC(−)) for record `O=C(Nc1nnc(-c2ccc3c(c2)CCC3)o1)N1CC=C(C(F)(F)F)CC1` = 0.29

Value (log10 of MIC, E. coli TolC(−)) for record `CC(C)OC1CCN(C(=O)Nc2nnc(-c3ccc(F)cc3)o2)CC1` = 1.65

Value (log10 of MIC, E. coli TolC(−)) for record `O=C(Nc1nnc(-c2ccc(F)cc2)o1)N1CC2CCC(C1)O2` = 2.00

Please report log10 of MIC for every entry that follows.
1. O=C(Nc1nnc(-c2ccc(F)cc2)o1)N1CCCC(F)(F)CC1
2. COCCN1[C@H](C)CN(C(=O)Nc2nnc(-c3ccc(F)cc3)o2)C[C@@H]1C
3. CC(C)(C)OC(=O)N1CCC(Oc2ccc(C(=O)Nc3nnc(-c4ccc(F)cc4)o3)cc2)CC1
4. CC(C)(C)C1CCCN(C(=O)Nc2nnc(-c3ccc(F)cc3)o2)CC1 (centres unmarked)

1: 1.10; 2: 1.70; 3: 0.55; 4: 1.05

Please report log10 of MIC for every entry that follows.
1. CC1=CCN(C(=O)Nc2nnc(-c3c(C)cc(F)cc3C)o2)CC1
2. Cc1cccc(Oc2ccc(C(=O)Nc3nnc(-c4ccc(F)cc4)o3)cc2)c1
3. Cc1ccccc1-c1nnc(NC(=O)N2CCc3ccccc3C2)o1
4. O=C(Nc1nnc(C2CCCCC2)o1)N1CCC(Cl)=C(Cl)C1

1: 1.10; 2: -0.01; 3: 0.85; 4: 0.80

Please report log10 of MIC for every entry that follows.
1. O=C(Nc1nnc(C2CCCCC2)o1)c1ccc(Oc2ccccc2)nc1
2. Cc1cncc(Oc2ccc(C(=O)Nc3nnc(-c4ccc(F)cc4)o3)cc2)n1

[0.09, 1.05]

Please report log10 of MIC for every entry that follows.
1. O=C(Nc1nnc(-c2ccc(F)cc2)o1)N1CCC(C(F)(F)F)CC1
2. O=C(Nc1nnc(-c2ccc(F)cc2)o1)c1ccc(OC2CCCCC2)cc1
3. CC(C)C1CCCN(C(=O)Nc2nnc(-c3ccc(F)cc3)o2)C1 (centres unmarked)
4. CCOC1CCN(C(=O)Nc2nnc(-c3ccc(F)cc3)o2)CC1
5. Cc1cc(C)cc(Oc2ccc(C(=O)Nc3nnc(-c4ccc(F)cc4)o3)cc2)c1
6. O=C(Nc1nnc(-c2ccc(F)cc2)o1)N1CCC(O)CC1
7. CCN(c1ccccc1)c1ccc(C(=O)Nc2nnc(-c3ccc(F)cc3)o2)cc1
8. CC1=CCN(C(=O)Nc2nnc(C3CCCCC3)o2)CC1

1: 0.80; 2: 0.04; 3: 0.85; 4: 1.65; 5: 0.19; 6: 2.00; 7: 0.39; 8: 1.40

Value (log10 of MIC, E. coli TolC(−)) for record `CC(C)(C)C1=CCN(C(=O)Nc2nnc(-c3ccc(F)cc3)o2)CC1` = 0.80
